B1: library; a variant is named by its letters at N, in order (parent)
chain: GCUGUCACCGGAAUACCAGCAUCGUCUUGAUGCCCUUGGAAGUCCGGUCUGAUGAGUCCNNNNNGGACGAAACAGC

Variants of: B1
method.notes: FACS-Seq fitted mean relative fluorescence mCherry/BFP without ligand (log10 relative fluorescence); higher = higher reporter protein expression
run.conditions: HEK293T, ligand present: no
Attribute: FACS-Seq fitted mean (log10)
Answer field: number only, no words.

Example cases with answers are listed next.
input.sequence	assay.result
GCUGUCACCGGAAUACCAGCAUCGUCUUGAUGCCCUUGGAAGUCCGGUCUGAUGAGUCCAUCACGGACGAAACAGC [AUCAC]	0.845
GCUGUCACCGGAAUACCAGCAUCGUCUUGAUGCCCUUGGAAGUCCGGUCUGAUGAGUCCCGAGUGGACGAAACAGC [CGAGU]	0.892
GCUGUCACCGGAAUACCAGCAUCGUCUUGAUGCCCUUGGAAGUCCGGUCUGAUGAGUCCCCGUCGGACGAAACAGC [CCGUC]	0.556

GCUGUCACCGGAAUACCAGCAUCGUCUUGAUGCCCUUGGAAGUCCGGUCUGAUGAGUCCCAGCCGGACGAAACAGC [CAGCC] has a reported FACS-Seq fitted mean (log10) of 0.864

GCUGUCACCGGAAUACCAGCAUCGUCUUGAUGCCCUUGGAAGUCCGGUCUGAUGAGUCCUAAGGGGACGAAACAGC [UAAGG] has a reported FACS-Seq fitted mean (log10) of 0.645

GCUGUCACCGGAAUACCAGCAUCGUCUUGAUGCCCUUGGAAGUCCGGUCUGAUGAGUCCAGUCAGGACGAAACAGC [AGUCA] has a reported FACS-Seq fitted mean (log10) of 0.8
